target: human Proteasome (20S proteasome, chymotryptic activity) (Homo sapiens); construct: purchased Immatics, Tübingen; test: chymotryptic activity of the 20S proteasome (Suc-LLVT-AMC substrate, fluorescence); assay type: biochemical; conditions: unit cell prints nM
readout-name: IC50 (nM)
Unit nM implied. Number only.

Annotate the compound O=C1CN(/N=C/C(Cc2ccccc2)NC(=O)C(Cc2c[nH]c3ccccc23)NC(=O)C(Cc2c[nH]c3ccccc23)NC(=O)CCCCC2SCC3NC(=O)NC32)C(=O)N1 (stereo not shown) [Compound 2] with its measured IC50.
76

Hello, the source for this data is patent US7531517B2, in case you need it.
